Origin of values: patent US20260226068A1

measuredOn: IL-17A/A (Homo sapiens)
Sequence (Q16552 24-155): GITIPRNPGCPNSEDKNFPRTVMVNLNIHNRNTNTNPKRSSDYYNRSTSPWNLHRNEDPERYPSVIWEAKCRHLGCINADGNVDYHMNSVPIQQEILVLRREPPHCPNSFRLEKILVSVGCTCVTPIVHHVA
assayName: IL-17A/A HEK-Blue cell assay (SEAP reporter)
appliedConditions: HEK-Blue IL-17A reporter cells, IL17A/A 5 ng/mL, 20 hours, SEAP read at A630; read-out: HEK-Blue IL17AA (IC50 for IL-17A/A inhibition)
pIC50: −log10 of the molar value.
readout: pIC50

>>> result("CCn1nccc1C(=O)N[C@H](c1cn2nc(C[C@H]3C[C@@H](C(F)(F)F)CNC3=O)c(C3CCOC(C)(C)C3)nc2n1)C1CCC(F)(F)CC1 (single isomer, unassigned) [Compound 176]")
"> 7.00"

Challenge: Item under review: Cn1nccc1C(=O)N[C@H](c1cn2nc(C[C@H]3C[C@@H](C(F)(F)F)CNC3=O)c(C3CCOCC3)nc2n1)C1CCCCC1 . Reported pIC50?
Response given: > 7.00

Challenge: And the next one, CCn1nccc1C(=O)N[C@H](c1cn2nc(C[C@H]3C[C@@H](C(F)(F)F)CNC3=O)c(CN(C)C3CC3)nc2n1)C1CCC(F)(F)CC1 ?
Response given: > 7.00
